assay: Pharmacokinetic Studies in Rats; assay type: in vivo, brown Norway rats; details: rat, plasma; 0.5 mpk IV and 2 mpk PO (arm not printed in this column head); read-out: Plasma AUC0-last
RESULT_TYPE: AUC(0-t) (µM·h)
// return numeric value only (unit: µM·h, not printed)

For record COc1cc(C)c2[nH]ccc2c1CN1CCC2(CC(F)(F)C2)CC12CCc1cc(C(=O)O)ccc12 (single isomer, unassigned) [Example 1 isomer 1] the listed AUC(0-t) is 25.4

* * *

Test: Pharmacokinetic Studies in Rats
Type: in vivo, brown Norway rats
Conditions: rat, 2 mg/kg PO, plasma; read-out: T½ (h) - 2 MPK PO (converted)
Protocol: Three-month-old brown Norway rats were administered the Example compound intravenously (0.5 mg/kg dose, formulation: 10% 1,2-Propanediol+25% (20% solutol HS 15 in water)+65% phosphate buffered saline at 0.1 mg/mL) and via oral gavage at 2 mg/kg dose as a clear solution (0.5% MC+0.5% Tween 80 in water at 1 mg/mL). […] The concentrations of the test article were measured in plasma by HPLC-MS/MS, two individual plasma samples at each time point. […]
RESULT_TYPE: half-life (h)
// return numeric value only (unit: h, not printed)

For record COc1cc(C)c2[nH]ccc2c1CN1CCC2(CC(F)(F)C2)CC12CCc1cc(C(=O)O)ccc12 (single isomer, unassigned) [Example 1 isomer 1] the listed half-life is 8.5
